Biological target: benzodiazepine receptor
Test: Specific benzodiazepine receptor binding: displacement of [^3 H] diazepam in crude mitochondrial fractions of rat cerebral cortex
Details: [^3 H] diazepam 2 nM, pH 7.4, 4° C., 20 minutes; read-out: IC50, effect on specific binding of [^3 H] diazepam
pIC50: −log10 of the molar value.
pIC50: recorded values
READOUT NAME: pIC50

* COc1ccc(N2C(=O)c3ccc(Cl)cc3C2CC(=O)N2CCCCC2)cc1 (stereo not drawn) | 9.10
* O=C(CC1c2ccccc2C(=O)N1c1ccc2ccc(Cl)nc2n1)N1CCCCC1 (stereo not drawn) | 9.19
* COc1ccc(N2C(=O)c3ccccc3C2CC(=O)N2CCCCC2)cc1 (stereo not drawn) | 8.35
* COc1ccc(N2C(=O)c3ccc(N)cc3C2CC(=O)N2CCCCC2)cc1 (stereo not drawn) | 8.42
* O=C(CC1C2=C(SCCS2)C(=O)N1c1ccccc1)N1CCCCC1 (stereo not drawn) | 8.12
* COc1ccc(N2C(=O)c3ccccc3C2CC(=O)N2CCSC2)cc1 (stereo not drawn) | 8.31

The origin of these recorded values is patent US4590189A.
